Molecular target: recombinant human PKLR (Homo sapiens, UniProt P30613)
Construct: His (N); purchased R&D Systems
Sequence (P30613 whole entry): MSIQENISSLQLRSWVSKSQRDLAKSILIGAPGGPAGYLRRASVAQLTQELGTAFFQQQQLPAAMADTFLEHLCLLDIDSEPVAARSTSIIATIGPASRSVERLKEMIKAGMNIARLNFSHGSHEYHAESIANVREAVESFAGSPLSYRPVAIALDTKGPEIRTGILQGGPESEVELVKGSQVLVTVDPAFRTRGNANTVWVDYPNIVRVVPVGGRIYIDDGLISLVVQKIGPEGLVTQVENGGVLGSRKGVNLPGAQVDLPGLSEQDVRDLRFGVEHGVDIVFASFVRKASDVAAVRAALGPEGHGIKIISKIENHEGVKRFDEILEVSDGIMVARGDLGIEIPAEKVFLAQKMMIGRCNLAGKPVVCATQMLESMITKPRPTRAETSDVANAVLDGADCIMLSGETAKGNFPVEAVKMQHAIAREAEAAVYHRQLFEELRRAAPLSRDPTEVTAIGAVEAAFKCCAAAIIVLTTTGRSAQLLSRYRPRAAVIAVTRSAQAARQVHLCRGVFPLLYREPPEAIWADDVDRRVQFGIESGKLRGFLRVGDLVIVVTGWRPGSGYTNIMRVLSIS
Assay: Human PKLR activation assay (Kinase-Glo Plus luminescent detection of generated ATP)
Assay type: biochemical
Conditions: percentage activation normalised to DMSO vehicle (LOW) and 5 μM TEPP-46 (HIGH) controls; read-out: hPKLR Emax (%)
measure name: Emax (%)

- molecule: "O=c1c2ccc(S(=O)(=O)c3ccc4occc4n3)cc2cnn1Cc1ccn(C2CC2)n1 [Example 256]"
  value reported: 136
- molecule: "COc1ccc(S(=O)(=O)c2ccc3c(=O)n(Cc4ncccc4O)ncc3c2)cc1 [Example 113]"
  value reported: 118
- molecule: "Cn1ccc(Cn2ncc3cc(S(=O)(=O)c4cnn(C5CC5)c4)ccc3c2=O)n1 [Example 194]"
  value reported: 112
- molecule: "O=c1c2ccc(S(=O)(=O)c3cn[nH]c3)cc2cnn1Cc1cccc(C2CC2)n1 [Example 287]"
  value reported: 110
- molecule: "COc1ccc(Cn2ncc3cc(S(=O)(=O)c4ccccc4)ccc3c2=O)cn1 [Example 41]"
  value reported: 109
- molecule: "O=c1c2ccc(S(=O)(=O)c3ccccc3)cc2cnn1Cc1ccn(C2CC2)n1 [Example 73]"
  value reported: 117
- molecule: "O=c1c2ccc(S(=O)(=O)c3cn[nH]c3)cc2cnn1Cc1ccc2c(n1)CCO2 [Example 253]"
  value reported: 107
- molecule: "Cc1cn(C)nc1Cn1ncc2cc(S(=O)(=O)c3ccccc3)ccc2c1=O [Example 89]"
  value reported: 135

---

Target: recombinant human PKM2 (Homo sapiens, UniProt P14618)
Construct: His (N); purchased R&D Systems
Sequence (P14618 2-531 limits assumed): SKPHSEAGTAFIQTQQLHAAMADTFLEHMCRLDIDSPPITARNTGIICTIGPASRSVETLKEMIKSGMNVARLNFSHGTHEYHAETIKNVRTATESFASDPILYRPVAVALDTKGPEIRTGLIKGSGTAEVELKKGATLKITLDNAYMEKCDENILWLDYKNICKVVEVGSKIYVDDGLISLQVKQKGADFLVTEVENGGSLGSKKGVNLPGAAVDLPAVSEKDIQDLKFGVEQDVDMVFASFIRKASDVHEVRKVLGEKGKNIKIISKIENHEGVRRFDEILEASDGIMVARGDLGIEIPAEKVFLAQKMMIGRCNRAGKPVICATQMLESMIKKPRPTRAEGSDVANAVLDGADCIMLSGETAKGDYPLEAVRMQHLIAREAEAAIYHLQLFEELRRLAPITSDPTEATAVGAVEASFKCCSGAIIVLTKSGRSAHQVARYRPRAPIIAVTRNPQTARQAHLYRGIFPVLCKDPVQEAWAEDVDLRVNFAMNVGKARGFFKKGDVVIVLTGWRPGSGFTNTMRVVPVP
Assay: Human PKM2 activation assay (Kinase-Glo Plus luminescent detection of generated ATP)
Assay type: biochemical
Settings: percentage activation normalised to DMSO vehicle (LOW) and 5 μM TEPP-46 (HIGH); read-out: hPKM2 Emax
measure name: Emax (%)

Consider the worked cases shown below.
- chemical smiles: "CCn1nccc1Cn1ncc2cc(S(=O)(=O)c3ccccc3)ccc2c1=O"
  measure name: "Emax"
  value reported: 78.1
- chemical smiles: "O=c1c2ccc(S(=O)(=O)c3ccccc3)cc2cnn1Cc1ccccc1"
  measure name: "Emax"
  value reported: 102
- chemical smiles: "Cc1cccc(Cn2ncc3cc(S(=O)(=O)c4cnn(C5CNC5)c4)ccc3c2=O)n1"
  measure name: "Emax"
  value reported: 102
- chemical smiles: "O=c1c2ccc(S(=O)(=O)c3ccccc3)cc2cnn1C(F)(F)c1cccnc1"
  measure name: "Emax"
  value reported: 99
- chemical smiles: "COc1ccnc(S(=O)(=O)c2ccc3c(=O)n(Cc4ccc(OC)nc4)ncc3c2)c1"
  measure name: "Emax"
  value reported: 77.5

1. COc1ccc(Cn2ncc3cc(S(=O)(=O)c4ccccc4)ccc3c2=O)cn1
2. COc1ccc(Cn2ncc3cc(S(=O)(=O)c4cc(C)ccn4)ccc3c2=O)cn1
Task item: Sort 1 and 2 by Emax descending and give the first. I would appreciate it if you answered with the label of your choice.
Reply: 1

---

Biological target: recombinant human PKM2 (Homo sapiens, UniProt P14618)
Construct: His (N); purchased R&D Systems
Test: Human PKM2 activation assay (Kinase-Glo Plus luminescent detection of generated ATP)
Assay type: biochemical
Settings: recombinant human PKM2 activation; 4-parameter logistic fit; read-out: hPKM2 EC50
measure name: EC50 (nM)

Consider the worked cases shown below.
- molecule: "COc1ccc(S(=O)(=O)c2ccc3c(=O)n(Cc4c(Cl)ccnc4O)ncc3c2)cc1 [Example 102]"
  measure name: "EC50"
  value reported: 69.9
- molecule: "COc1ccc(S(=O)(=O)c2ccc3c(=O)n(CCc4ccccc4)ncc3c2)cc1 [Example 44]"
  measure name: "EC50"
  value reported: 367
- molecule: "O=c1c2ccc(S(=O)(=O)c3ccccc3)cc2cnn1Cc1cc(C2CC2)[nH]n1 [Example 25]"
  measure name: "EC50"
  value reported: 198
- molecule: "CC(O)c1cccc(Cn2ncc3cc(S(=O)(=O)c4cnn(C)c4)ccc3c2=O)n1 (stereo not drawn) [Example 274]"
  measure name: "EC50"
  value reported: 350
- molecule: "O=c1c2ccc(S(=O)(=O)c3ccc4[nH]ccc4c3)cc2cnn1Cc1cc[nH]n1 [Example 226]"
  measure name: "EC50"
  value reported: 356

1. O=c1c2ccc(S(=O)(=O)c3ccccc3)cc2cnn1Cc1ccccc1 [Example 71]
2. Cn1ccc(S(=O)(=O)c2ccc3c(=O)n(Cc4ccc5occc5n4)ncc3c2)n1 [Example 336]
Task item: Sort 1 and 2 by EC50 descending and give the first. I would appreciate it if you answered with the label of your choice.
Reply: 1
(1: 115 nM, 2: 28.5 nM)
